Value source: patent US12338203B2

- assayed-system: human LPAR1 (Homo sapiens, UniProt Q92633)
- Construct: expressed in transfected cells
- Sequence (Q92633 whole entry): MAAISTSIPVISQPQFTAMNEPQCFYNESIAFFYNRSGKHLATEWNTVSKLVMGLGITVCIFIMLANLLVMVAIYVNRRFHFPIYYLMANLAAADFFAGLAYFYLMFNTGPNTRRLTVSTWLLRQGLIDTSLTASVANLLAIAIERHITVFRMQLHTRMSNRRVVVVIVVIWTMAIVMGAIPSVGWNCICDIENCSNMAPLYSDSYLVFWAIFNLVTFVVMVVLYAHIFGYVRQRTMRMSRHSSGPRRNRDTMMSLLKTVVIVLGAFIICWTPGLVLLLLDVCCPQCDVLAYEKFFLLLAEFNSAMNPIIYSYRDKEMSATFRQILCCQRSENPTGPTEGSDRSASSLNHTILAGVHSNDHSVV
- assay-procedure: Test Example 1: antagonism against response of LPA-induced increase in intracellular Ca2+ concentration in RH7777 cells stably expressing human LPAR1
- Type: cell-based
- stated-conditions: RH7777 cells stably expressing human LPAR1; Fluo-4 fluorescence, FDSS6000; read-out: IC50 value (concentration producing 50% antagonism against response of LPA-induced increase in intracellular Ca2+ concentration) (converted)
value-type: IC50 (nM)

(a) CCOc1cc(C(C)N(CCO[C@@H](C)c2ccccc2)C(=O)NC2(C(=O)OC(C)(C)C)CC(OCC)C2)cc(OCC)c1C(C)=O (stereo partly drawn)
(b) COc1cc(C(C)N(CCOCc2ccccc2)C(=O)NC2(C(=O)O)CC(F)(F)C2)cc(OC)c1C(C)=O (stereo not drawn)
Of a and b , whose reported IC50 is the larger number? Answer format: the label of the selected item.
a
(a: 3530 nM, b: 3.49 nM)

(1) CCOc1cc(C(C)N(CCCCc2ccccc2F)C(=O)NC2(C(=O)O)CC(F)(F)C2)cc(OCC)c1C (stereo not drawn)
(2) CCOc1cc([C@@H](C)N(CCC(F)(F)Cc2ccccc2)C(=O)N[C@]2(C(=O)O)C[C@@H](OC)C2)cc(OCC)c1C1CC1
Consider entries 1 and 2 . Which has the numerically lower IC50? Your choice should be expressed through its label.
2
(2: 1.97 nM, 1: 8.87 nM)

(P) CCOc1cc(C(CO)N(CCCCc2ccccc2)C(=O)NC2(C(=O)O)CC(F)(F)C2)cc(OCC)c1C(C)=O (stereo not drawn)
(Q) CCOc1cc([C@@H](C)N(CCCCc2ccccc2)C(=O)NC2(C(=O)O)CC(F)(F)C2)c(Cl)c(OCC)c1C(C)O (single isomer, unassigned) [Example 5-53]
Between P and Q , which one shows the smaller IC50 number? When you have decided, please share the label of that item.
Q
(Q: 2.54 nM, P: 4.03 nM)

----------
- assayed-system: human LPAR1 (Homo sapiens, UniProt Q92633)
- Construct: expressed in transfected cells
- assay-procedure: Test Example 1: antagonism against response of LPA-induced increase in intracellular Ca2+ concentration in RH7777 cells stably expressing human LPAR1
- Type: cell-based
- stated-conditions: RH7777 cells stably expressing human LPAR1; Fluo-4 fluorescence, FDSS6000; read-out: IC50 value (concentration producing 50% antagonism against response of LPA-induced increase in intracellular Ca2+ concentration) (converted)
- Protocol: (1) Preparation of RH7777 cells stably expressing human LPAR1 The human LPAR1 expression vector was transfected into RH7777 cells to acquire human LPAR1 expressing cells. […] The cells were seeded onto the Poly-D-Lysine 96 well black plate and incubated overnight. […] In FDSS6000 (Hamamatsu Photonics K.K.), LPAs were added, and the change in intracellular Ca^2+ concentration was detected using the fluorescence value of a wavelength of 540 nm by an excitation wavelength of 480 nm as an indicator. […]
value-type: IC50 (nM)

Known results for compounds:
Quick one: IC50 of CCOc1cc([C@@H](C)N(CCO[C@@H](C)c2ccccc2)C(=O)N[C@]2(C(=O)O)C[C@@H](OCC)C2)c(Cl)c(OCC)c1C(C)O (single isomer, unassigned) [Example 5-62] ?
1.56

Need IC50, item CCOc1c(C(C)=O)ccc([C@@H](C)N(CCO[C@@H](C)c2ccccc2)C(=O)NC2(C(=O)O)CC(OC)C2)c1C (some centres unmarked) [Example 4-130]
6.66

Please report the recorded IC50 for COc1cc(C(C)N(CCO[C@@H](C)c2ccccc2)C(=O)NC2(C(=O)O)CCOCC2)c(Cl)c(OC)c1C1CC1 (some centres unmarked) .
6.4

Requested read-out: IC50. Entry: CCOc1cc(C(C)N(CCOCc2ccccc2)C(=O)NC2(C(=O)O)CCC2)c(C)c(OCC)c1C (centres unmarked)
2

Recorded IC50 of "CCOc1cc([C@@H](C)N(CCCC(F)(F)c2ccccc2)C(=O)NC2(C(=O)O)CCC2)cc(OCC)c1C(C)=O" , please.
1.21

Fill in the blank: the reported IC50 of "CCOc1cc([C@@H](C)N(CCCc2ccccc2F)C(=O)NC2(C(=O)O)CC(F)(F)C2)cc(OCC)c1C" is ____.
9.64

(P) CCOc1c(C(C)=O)ccc([C@@H](C)N(CCOCc2ccccc2)C(=O)NC2(C(=O)O)CC(F)(F)C2)c1C
(Q) CCOc1cc([C@@H](C)N(CCOCc2ccccc2)C(=O)NC2(C(=O)O)CC(OC)C2)cc(OCC)c1C(C)=O (some centres unmarked) [Example 4-107]
(R) CCOc1cc([C@@H](C)N(CCO[C@@H](C)c2ccccc2)C(=O)NC2(C(=O)O)CCOCC2)cc(OCC)c1C(C)=O
(S) CCOc1cc([C@@H](C)N(CCCCc2cccnc2)C(=O)NC2(C(=O)O)CC(F)(F)C2)cc(OCC)c1C
(T) CCOc1cc(OCC)cc(C(C)N(CCCCc2ccccc2)C(=O)NC2(C(=O)O)CC(F)(F)C2)c1 (centres unmarked)
Please rank these compounds by IC50 in descending order. // rank by listing labels in the order requested
T, S, R, Q, P
(T: 99.6 nM, S: 17.6 nM, R: 5.9 nM, Q: 4.08 nM, P: 1.04 nM)

(I) CCOc1cc([C@@H](C)N(CCOCc2ccccc2)C(=O)NC2(C(=O)O)CC(F)(F)C2)cc(OCC)c1C(C)=O
(II) CCOc1c(C(C)=O)ccc([C@@H](C)N(CCC(F)(F)Cc2ccccc2)C(=O)NC2(C(=O)O)CC(F)(F)C2)c1C
(III) CCOC1CC(NC(=O)N(CCOCc2ccccc2)C(C)c2cc(OC)c(C(C)=O)c(OC)c2C)(C(=O)O)C1 (centres unmarked)
(IV) CCOc1cc(C(C)N(CCCCc2ccccc2)C(=O)NC2(C(=O)O)CC(F)(F)C2)cc(OCC)c1C(C)(C)O (centres unmarked)
Would you mind ranking these compounds by ascending IC50? Response format: the labels, sorted as the prompt asks.
I, III, IV, II

(1) CCOc1cc(C(C)N(CCOCc2ccccc2)C(=O)NC2(C(=O)O)CCOCC2)c(C)c(OCC)c1C1CC1 (centres unmarked)
(2) CCOc1c(C(C)=O)ccc([C@@H](C)N(CCCCc2ccccc2)C(=O)NC2(C(=O)O)CC(OCC)C2)c1C (some centres unmarked) [Example 1-103]
Pick one, 1 or 2 : lowest reported IC50. Write the label of whichever entry you select.
1
(1: 0.851 nM, 2: 4.57 nM)

(1) CCOc1cc([C@@H](C)N(CCCC(F)(F)c2ccccc2)C(=O)NC2(C(=O)O)CCOCC2)cc(OCC)c1C1CC1
(2) CCOc1cc([C@@H](C)N(CCO[C@@H](C)c2ccccc2)C(=O)NC2(C(=O)O)CC(OC)C2)cc(OCC)c1C(C)O (some centres unmarked) [Example 4-126]
(3) CCOc1cc([C@@H](C)N(CCCCc2ccccc2)C(=O)NC2(C(=O)O)CCOC2)cc(OCC)c1C (some centres unmarked)
(4) CCOc1cc([C@@H](C)N(CCc2ccc(OC)cc2)C(=O)NC2(C(=O)O)CC(F)(F)C2)cc(OCC)c1C
Rank the items in ascending order with respect to IC50. Please list the labels in the order you were asked to rank them.
1, 2, 3, 4
(1: 0.992 nM, 2: 3.91 nM, 3: 8 nM, 4: 148 nM)

----------
- assayed-system: human LPAR1 (Homo sapiens)
- Construct: expressed in transfected cells
- assay-procedure: Test Example 1: antagonism against response of LPA-induced increase in intracellular Ca2+ concentration in RH7777 cells stably expressing human LPAR1
- Format: cell-based
- stated-conditions: RH7777 cells stably expressing human LPAR1; Fluo-4 fluorescence, FDSS6000; read-out: IC50 value (concentration producing 50% antagonism against response of LPA-induced increase in intracellular Ca2+ concentration) (converted)
value-type: IC50 (nM)

May I ask what IC50 has been recorded for "CCOc1cc([C@@H](C)N(CCC(F)(F)Cc2ccccc2)C(=O)NC2(C(=O)O)CC(F)(F)C2)cc(OCC)c1C(C)=O" ?
2.88

(A) CC(c1cc(Cl)cc(Cl)c1)N(CCCCc1ccccc1)C(=O)NC1(C(=O)O)CC(F)(F)C1 (stereo not shown)
(B) CCOC1CC(NC(=O)N(CCOC(C)c2ccccc2)C(C)c2cc(OC)c(C)c(OC)c2C)(C(=O)O)C1 (stereo not shown)
(C) CCOc1cc([C@@H](C)N(CCCC(F)(F)c2ccccc2)C(=O)NC2(C(=O)O)CCC2)cc(OCC)c1C1CC1
(D) CCOc1cc(C(C)N(CCCCc2ccccc2)C(=O)NC2(C(=O)O)CC(F)(F)C2)cc(OCC)c1C(=O)O (stereo not shown)
(E) CCOc1cc([C@@H](C)N(CCCCc2ccccc2)C(=O)NC2(C(=O)O)CC(OC)C2)c(Cl)c(OCC)c1C(C)=O (stereo partly shown) [Example 5-47]
Please list the entries, largest IC50 first. Answer by listing the labels in the requested order.
D, A, B, E, C
